target: Pyrobaculum calidifontis crenactin (Pyrobaculum calidifontis, UniProt A3MWN5 1-432); assay: SPR
Sequence (A3MWN5 whole entry): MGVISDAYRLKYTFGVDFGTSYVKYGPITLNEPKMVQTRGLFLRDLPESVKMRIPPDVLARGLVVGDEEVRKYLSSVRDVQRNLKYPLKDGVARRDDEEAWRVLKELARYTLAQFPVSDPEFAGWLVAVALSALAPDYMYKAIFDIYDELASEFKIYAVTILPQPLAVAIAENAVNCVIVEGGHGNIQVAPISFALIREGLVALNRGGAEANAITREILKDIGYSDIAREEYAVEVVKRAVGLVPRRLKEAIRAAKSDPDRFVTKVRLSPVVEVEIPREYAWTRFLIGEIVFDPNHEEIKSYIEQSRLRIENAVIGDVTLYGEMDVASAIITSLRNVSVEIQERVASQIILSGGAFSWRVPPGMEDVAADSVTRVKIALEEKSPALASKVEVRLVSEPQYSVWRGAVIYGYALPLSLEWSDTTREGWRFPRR
observation.type: Kd (nM)

1. RGGIGENEWVKILRSKR [arcadin-2 C-terminal peptide (residues 187-203)] = 9
